# measuredOn: Bromodomain-containing protein 9 (Homo sapiens)
# Sequence (Q9H8M2 whole entry, the tested form may be a part): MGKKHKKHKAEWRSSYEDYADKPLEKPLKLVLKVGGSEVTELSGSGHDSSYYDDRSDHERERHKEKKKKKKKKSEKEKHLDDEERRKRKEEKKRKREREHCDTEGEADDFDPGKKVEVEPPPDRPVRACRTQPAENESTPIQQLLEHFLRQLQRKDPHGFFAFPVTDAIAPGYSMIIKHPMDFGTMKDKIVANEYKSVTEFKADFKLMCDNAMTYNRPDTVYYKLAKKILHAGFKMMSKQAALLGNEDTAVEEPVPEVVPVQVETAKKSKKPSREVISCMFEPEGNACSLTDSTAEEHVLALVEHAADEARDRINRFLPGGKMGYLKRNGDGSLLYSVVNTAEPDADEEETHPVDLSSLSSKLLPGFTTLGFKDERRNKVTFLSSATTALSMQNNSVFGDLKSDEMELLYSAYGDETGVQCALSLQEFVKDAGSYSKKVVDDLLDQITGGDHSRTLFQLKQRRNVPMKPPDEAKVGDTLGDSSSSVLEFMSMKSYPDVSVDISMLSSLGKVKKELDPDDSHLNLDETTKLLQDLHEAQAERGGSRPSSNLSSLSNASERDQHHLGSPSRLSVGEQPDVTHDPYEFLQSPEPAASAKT
# protocolDescription: Binding affinity to His6-tagged human BRD9 bromodomain (14 to 134 residues) expressed in Escherichia coli BL21 (DE3) assessed as dissociation constant by ITC analysis
quantity: Kd (nM)
Form entry: value (nM) — number only.

So what's the measured Kd for this one? CO[C@H]1CC[C@H](n2c([C@@H]3CCCC(=O)N3c3ccc(F)c(F)c3)nc3cc(-c4c(C)noc4C)ccc32)CC1 [INOBRODIB]
2610

* * *

Provide the recorded recovery at 2 h, 10 µM for the entries that follow.
# protocolDescription: Apparent permeability across apical to basolateral side in human Caco-2 cells assessed as drug recovery at 10 uM measured after 2 hrs by LC-MS/MS analysis
# Type: ADME, cell-based
# testParameters: read-out: Drug recovery

So what's the measured recovery at 2 h, 10 µM for this one? CC(C)NCC(O)COc1cccc2ccccc12 (centres undefined)
85%

So what's the measured recovery at 2 h, 10 µM for this one? CC(C)NCC(O)COc1ccc(CC(N)=O)cc1 (centres undefined)
94.8%

So what's the measured recovery at 2 h, 10 µM for this one? CC(=O)c1cc(C(=O)Nc2cc(CO)cc(-c3cnn(C4CC4)c3)c2F)c2cc(OC(=O)N(C)C)ccn12
107%

So what's the measured recovery at 2 h, 10 µM for this one? COc1ccn2c(C(C)=O)cc(C(=O)Nc3cc(C(C)O)cc(-c4cnn(C5CC5)c4)c3F)c2c1 (centres undefined)
41.2%

* * *

# measuredOn: Bromodomain testis-specific protein (Homo sapiens)
# testParameters: dose 200.0 µM, time 30.0 min
Provide the recorded ΔTm for the entries that follow.
Form entry: value (°C) — number only.

So what's the measured ΔTm for this one? CC(=O)c1cc(C(=O)Nc2cc(C(C)O)cc(-c3cnn(C4CC4)c3)c2F)c2cc(N)ccn12 (stereo unspecified)
0

So what's the measured ΔTm for this one? CO[C@H]1CC[C@H](n2c([C@@H]3CCCC(=O)N3c3ccc(F)c(F)c3)nc3cc(-c4c(C)noc4C)ccc32)CC1
0.5

So what's the measured ΔTm for this one? CC(=O)c1cc(C(=O)Nc2cc(CO)cc(-c3cnn(C4CC4)c3)c2F)c2cc(OC(=O)N(C)C)ccn12
-3

So what's the measured ΔTm for this one? COc1ccn2c(C(C)=O)cc(C(=O)Nc3cc(C(C)O)cc(-c4cnn(C5CC5)c4)c3F)c2c1 (stereo unspecified)
-3

So what's the measured ΔTm for this one? CC(=O)c1cc(C(=O)Nc2cc(CO)cc(-c3cnn(C)c3)c2F)c2cc(N)ccn12
1.5

So what's the measured ΔTm for this one? C[C@@H]1CC(=O)Nc2cccc(-c3ccc4c(c3)c(-c3cnn(C)c3)nn4C)c2N1
-0.5

* * *

# protocolDescription: Efflux ratio of apparent permeability across basolateral to apical side over apical to basolateral side in human Caco-2 cells at 10 uM measured after 2 hrs by LC-MS/MS analysis
# Type: ADME, cell-based
quantity: efflux ratio at 2 h, 10 µM

So what's the measured efflux ratio at 2 h, 10 µM for this one? COc1ccn2c(C(C)=O)cc(C(=O)Nc3cc(C(C)O)cc(-c4cnn(C5CC5)c4)c3F)c2c1 (configuration not stated)
1.77

So what's the measured efflux ratio at 2 h, 10 µM for this one? CC(=O)c1cc(C(=O)Nc2cc(CO)cc(-c3cnn(C4CC4)c3)c2F)c2cc(OC(=O)N(C)C)ccn12
14.2
